Documented IC50, inhibition of IL-2 secretion of T-Hyb 1 cells across a set of binders
biological target: human-mouse chimeric molecule DR-IE (human; mouse); assay: cell-based or functional assay
endpoint.label: IC50, inhibition of IL-2 secretion of T-Hyb 1 cells

* MS-GPC-8-6-13 (Fab form) (Fab, V domains shown, Fab: VH-CH1-FLAG-STREP tag II; also called 305D3) VH: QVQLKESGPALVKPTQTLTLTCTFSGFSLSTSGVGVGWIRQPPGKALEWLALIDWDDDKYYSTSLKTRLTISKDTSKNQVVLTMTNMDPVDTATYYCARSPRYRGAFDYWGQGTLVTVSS VL: DIVLTQPPSVSGAPGQRVTISCSGSESNIGANYVTWYQQLPGTAPKLLIYDNNQRPSGVPDRFSGSKSGTSASLAITGLQSEDEADYYCQSYDYDHYVFGGGTKLTVLG | 2.1 nM ((Fab)/2)
* MS-GPC-8-27-10 (Fab form) (Fab, V domains shown, Fab: VH-CH1-FLAG-STREP tag II) VH: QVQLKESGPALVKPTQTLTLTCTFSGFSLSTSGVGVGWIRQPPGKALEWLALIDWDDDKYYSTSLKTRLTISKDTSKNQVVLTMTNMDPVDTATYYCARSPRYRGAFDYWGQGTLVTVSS VL: DIVLTQPPSVSGAPGQRVTISCSGSESNIGANYVNWYQQLPGTAPKLLIYDNNQRPSGVPDRFSGSKSGTSASLAITGLQSEDEADYYCQSYDMNVHVFGGGTKLTVLG | 7.3 nM ((Fab)/2)
